- Test system: K4 kissing-loop RNA reporter;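 note: bound reporter read as fluorescence of individual clusters on recovered sequencing chips by microscopy, with normalized cluster intensities fitted with a binding model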
- assay.remarks: apparent KD of K4 kissing-loop reporter; higher = weaker reporter binding
- experimental.parameters: Eterna round: R107; input ligand: arginine 13.2 mM
Item-by-item account of apparent KD of K4 kissing-loop reporter
outcome.measure: apparent KD of K4 kissing-loop reporter (nM)

CCGUAGCGAUCGGCCGCCACUCAAGAUCGCCAACUAUCACACGGUUCUCCCGAGUGAUGUUCUAGGAGGACCGGGAUUGUUGCUC [theeternabot_exclusion_KL_Trp_B_13]: 322
CAUACGCAUGGAGGAUAUGGGAUUACUCAUAUUACCCUGUAACAGGUAUCUCAGUGAUGUUGAGACUCAGAAGGCCAUGUGUAUG [Ex FMN B 23]: 289
UUAUAUUUUAUAUUUAGUAGAGCUCUCGCUCGAGGACCGGUACGGCCGCCACUCGAGUGAUGUUCGAGUGGGAGAGCUCUACAUU [AK3.3 EXC Tryptophan A]: 99.5
UAAGAAUAAGUAGCAGUGAUGUUGCUACUGCGAGGACCGGUACGGCCGCCACUCGAGUCCUCGAAGCAUCACUGAACGAGGAAUA [whbob_SS_Tryp_A_m12]: 229
CUUGAUGGAAACAUCGAGUAGAUUACUGAUACCAGUAUCGAUAGAUACCCUUGGCAGCAGAAUCAGUAAUCACGAGUGAUGUUCG [Ex Theophylline A K4 7]: 528
GCCGUAGAUUGAAGGAGCGUUCUUCAGCAAACUUGCAGUGAUGUUGCAUUAAACAUGUAAGAACAGGUAGGUCGCAAUCUACGGC: 138

Where do the numbers come from? From the supplement of paper PMC9170038.
